Data credit: PubChem BioAssay (NCI)

Measured TGI values are reported for all entries that follow.
- Test system: HCT-15 colon
- Test Protocol: NCI tumour cell line growth inhibition, 48 h

Example entries and their recorded answers appear below.
- Molecule: "O=C(/C=C/c1ccc(OCc2cccc(Cl)c2)cc1)NO"
  Study Target: "HCT-15 colon"
  TGI: "20.8 µM"
- Molecule: "CC(O)CCCCC(O)CCC[C@H](O)[C@H]1CCC([C@H]2CCC([C@@H](O)CCCCCCCCCCCCC3=C[C@H](C)OC3=O)O2)O1 (stereo partly specified)"
  Study Target: "HCT-15 colon"
  TGI: "25.5 µM"
- Molecule: "CCCCSC1=N/C(=C\\c2ccco2)C(Cl)=N1"
  Study Target: "HCT-15 colon"
  TGI: "> 100 µM"
- Molecule: "CN(CCO)c1ccc(N2Cc3ccccc3OC3=C2C(=O)c2c(O)ccc(O)c2C3=O)cn1"
  Study Target: "HCT-15 colon"
  TGI: "0.484 µM"

Respond only with TGI recorded for COc1ccc(CC2c3cc(OC)c(OC)cc3CC[N+]2(C)C)cc1OC (stereo unspecified)
> 100 µM

Specify TGI for "Cc1ccccc1N/C(=C(/C(Cl)=C(Cl)Cl)[N+](=O)[O-])n1nnc2ccccc21" and stop.
31.6 µM

Annotate the molecule "C=C(C(=O)O)[C@@H]1C[C@@H](OC(C)=O)[C@]2(C)CC/C=C(\C)CCC[C@H](C)[C@H](O)[C@@H]1O2" with its measured TGI.
> 100 µM

----------
- Test system: DU-145 prostate
- Test Protocol: NCI tumour cell line growth inhibition, 48 h; in the data active means GI50 below about 0.43 µM; inactive means the rest
Outcome (select one): active, inactive

Past entries and their recorded results:
- Compound: "COc1ccc(-c2ccc(-c3ccc(C(=N)N)s3)s2)cc1"
  Assigned Category: "active"
- Compound: "C=C1C(=O)O[C@H]2[C@H]1CC/C(COC(=O)/C=C\\C(=O)NCc1ccc(Cn3c(=O)sn(CCCC)c3=O)cc1)=C\\CC[C@@]1(C)O[C@@H]21"
  Assigned Category: "inactive"
- Compound: "CCN1C(=O)N(CC)C2C1NN=c1s/c(=C3\\C(=O)N(CC(C)(C)C)c4ccccc43)c(=O)n12 (centres undefined)"
  Assigned Category: "inactive"
- Compound: "COc1ccc(-n2c(C)cc(-c3ccccc3)c2C)cc1"
  Assigned Category: "inactive"
- Compound: "O=C1c2ccccc2-c2c1c1ccccc1c(=O)n2CCCCl"
  Assigned Category: "inactive"

Answer briefly: the call reported for "COc1cc2c(c(OC)c1OC)-c1ncc3cc4c(cc3c1C2)OCO4" in this assay.
inactive

Hey, what did the test say about "CSc1ccc2c(c1)C(=O)c1c-2n(CCCBr)c(=O)c2cc([N+](=O)[O-])ccc12" ?
inactive

Hi, sorry to bother you, what did the test record for "CN(CCO)c1ccc(N2Cc3ccccc3OC3=C2C(=O)c2c(O)ccc(O)c2C3=O)cn1" ?
active

Fill in: this test's call for "CCCCCOc1ccc(/C=N/Nc2cc(C)nc3ccc(Br)cc23)cc1" is ___
inactive

----------
- Test system: HS 578T breast
- Test Protocol: NCI tumour cell line growth inhibition, 48 h
Readout: TGI (µM)
Express the result in µM but write the number alone.

- Compound: "O[C@H](c1cc(C(F)(F)F)nc2c(C(F)(F)F)cccc12)[C@@H]1CCCCN1"
  Test Value: 25.5

Continue with the next compound.
Please look at this compound and report its TGI: CC1CC[C@@]2(OC1)OC1C[C@H]3[C@@H]4CC[C@H]5CC(OC6OC(CO)C(O)C(OC7OC(CO)C(OC8OC(CO)C(O)C(OC9OC(CO)C(O)C(O)C9O)C8OC8OC(CO)C(O)C(O)C8O)C(O)C7O)C6O)[C@H](O)CC5(C)[C@H]4CCC3(C)C1[C@@H]2C (stereo partly drawn)
6.16

----------
- System: NCI-H226 lung
- Test Protocol: NCI tumour cell line growth inhibition, 48 h
Quick list: GI50 per entry.

Example results:
- Compound: "CC1=C(C(=O)Nc2ccc(Cl)c(Cl)c2)C(c2cccc(Oc3ccccc3)c2)NC(=O)N1 (centres undefined)"
  Study Target: "NCI-H226 lung"
  Test Value: "8.36 µM"
- Compound: "CC(=O)Oc1ccccc1C(=O)Nc1ncc([N+](=O)[O-])s1"
  Study Target: "NCI-H226 lung"
  Test Value: "2.62 µM"

Jot down GI50 (NCI-H226 lung) of "COc1ccc(CCNC(=O)c2ccc(NC3=C(Cl)C(=O)N(Cc4ccccc4)C3=O)cc2)cc1OC" .
10 µM

Given "CCCOc1ccc2sc(NC(=O)OC)nc2c1" , report its GI50 on NCI-H226 lung.
> 100 µM

----------
Listing of recorded TGI by entry.
- Tested on: LOX IMVI melanoma
- Test Protocol: NCI tumour cell line growth inhibition, 48 h

- Molecule: "COC(=O)[C@H](Cc1c[nH]c2ccccc12)NC(=O)c1ccc(CNC(=O)/C(C)=C/c2ccccc2)cc1"
  Test Value: "> 100 µM"
- Molecule: "Cc1ccc(-c2n[nH]c(=O)n2/N=C\\c2ccc([N+](=O)[O-])cc2)cc1"
  Test Value: "> 100 µM"
- Molecule: "CCOC(=O)c1c(NC(=O)OC)c(C#N)c2n1CCCCC2"
  Test Value: "> 100 µM"
- Molecule: "O=C(/C=C/c1ccc(OCc2cccc(Cl)c2)cc1)NO"
  Test Value: "24.4 µM"
- Molecule: "Cc1cc(S(=O)(=O)O)c(NC(=O)C(=O)Cc2cc(=O)oc3cc(O)ccc23)cc1Cl"
  Test Value: "> 100 µM"
- Molecule: "COc1ccc(NC(=O)N(C)CC2(O)CCC(C(C)(C)C)CC2)cc1 (centres undefined)"
  Test Value: "74.7 µM"
- Molecule: "COC(=O)[C@H]1C=C[C@@H](C)n2c(=O)c3cc4ccccc4cc3c(=O)n21"
  Test Value: "> 100 µM"
- Molecule: "O=P1(c2ccccc2)CCCCC1"
  Test Value: "> 100 µM"
- Molecule: "COc1ccc(-n2c(C)cc(-c3ccccc3)c2C)cc1"
  Test Value: "11.9 µM"
- Molecule: "C#CC(C)(C)OC(=O)C(=[N+]=[N-])C(C)=O"
  Test Value: "> 10 µM"

Answer with the recorded TGI for the molecule listed here: "Cc1nc2ccc(NC(=S)Nc3ccccc3)cc2c(=O)n1-c1ccccc1"
> 100 µM

For the molecule "O=C(/N=C/c1c(O)c2ccccc2oc1=O)Oc1ccccc1" , give its measured TGI value.
80.9 µM

Supply measured TGI of "CCOC(=O)CO/N=C1/C(c2c(O)[nH]c3ccccc23)=Nc2ccccc21" in your reply.
> 100 µM

Identify the reported TGI for the following entry. "COc1ccc(-c2ccc(-c3ccc(C(=N)N)s3)s2)cc1"
0.382 µM

Identify measured TGI associated with "CCC(=O)O[C@H]1CC[C@H]2[C@@H]3CCC4=C/C(=N/OC(=O)c5cccc6c(=O)c7ccccc7[nH]c56)CC[C@]4(C)[C@H]3CC[C@]12C"
51.4 µM

Give reported TGI value for COc1c(OC(C)=O)c(OC(C)=O)cc2c1-c1ccc(SC)c(=O)cc1C(NC(C)=O)CC2 (centres undefined)
> 100 µM

----------
- Test system: SK-MEL-28 melanoma
- Test Protocol: NCI tumour cell line growth inhibition, 48 h
Readout: TGI

- Compound: "Nc1nc(Cl)c(N)c(NCC2(CO)CCCC2)n1"
  TGI: "> 100 µM"
- Compound: "CCCCCCCCCCCCC/C=C/[C@@H](O)[C@H](COC1OC(CO)C(OC2OC(CO)C(O)C(OC3(C(=O)O)CC(O)C(NC(C)=O)C(C(O)C(O)CO)O3)C2O)C(O)C1O)N=[N+]=[N-] (stereo partly drawn)"
  TGI: "60.5 µM"
- Compound: "CC1CC[C@@]2(OC1)OC1C[C@H]3[C@@H]4CC[C@H]5CC(OC6OC(CO)C(O)C(OC7OC(CO)C(OC8OC(CO)C(O)C(OC9OC(CO)C(O)C(O)C9O)C8OC8OC(CO)C(O)C(O)C8O)C(O)C7O)C6O)[C@H](O)CC5(C)[C@H]4CCC3(C)C1[C@@H]2C (stereo partly drawn)"
  TGI: "14.5 µM"
- Compound: "Cc1ccc(NC(=O)CSc2nnc(-c3ccc(N=Cc4ccc(Cl)cc4)cc3)o2)cc1"
  TGI: "> 100 µM"

Determine its reported TGI: "CCOc1ccncc1[N+](=O)[O-]"
> 100 µM

Retrieve TGI measured for "Cc1cc(S(=O)(=O)O)c(NC(=O)C(=O)Cc2cc(=O)oc3cc(O)ccc23)cc1Cl" and print it.
> 100 µM

Complete the entry with TGI for O=C(O)CC(NC(=O)CP(=O)(O)O)C(=O)O (stereo not drawn)
> 10000 µM

Name the recorded TGI of the compound listed here: O=C1NP23(OCCO2)Oc2ccccc2C3(C(F)(F)F)O1 (stereo not drawn)
> 100 µM

----------
The compounds listed here are annotated with their GI50.
- Test system: MDA-MB-231 breast
- Test Protocol: NCI tumour cell line growth inhibition, 48 h

- Compound: "CC1=C(C(=O)Nc2ccc(Cl)c(Cl)c2)C(c2cccc(Oc3ccccc3)c2)NC(=O)N1 (stereo not given)"
  GI50: "6.15 µM"
- Compound: "CSc1ccc2c(c1)C(=O)c1c-2n(CCCBr)c(=O)c2cc([N+](=O)[O-])ccc12"
  GI50: "> 100 µM"
- Compound: "COc1ncc(-c2ccc3ncnc(Nc4cccc(Cl)c4)c3c2)cc1NS(=O)(=O)C1CC1"
  GI50: "3.38 µM"
- Compound: "O=C1NC(=O)/C(=C\\c2ccccc2)C2=C1CCCC2"
  GI50: "13.2 µM"
- Compound: "O=C1NC(=NCCc2cccc(Cl)c2)S/C1=C\\c1ccc2ncccc2c1"
  GI50: "> 25 µM"
- Compound: "NC(=O)OCCn1cc(-c2nc(-c3c[nH]c4ncccc34)cs2)c2ccccc21"
  GI50: "1.1 µM"

Annotate the compound "COc1ccc(O)c(C(=O)c2ccc(C(=O)N[C@H]3CCCNC[C@@H]3NC(=O)c3ccncc3)cc2)c1F" with its measured GI50.
> 25 µM

Consider the compound "CCN(Cc1ccccc1C)c1ccc(CO)c(Cl)c1" . State its measured GI50.
13.7 µM
